- SYSTEM UNDER TEST: pooled human IgG
PROPERTY LABEL: Enzyme Activity Endpoint Assay (purified): IgG
# do not omit the unit; it follows the number

{"PROTEIN": "PRT-239 (protein) MEVVEVWPYGQNPNGKTEILSQTEDSESLQRLRDIEDFQAEKKMQNVVYTKWLDGVDVKDHDFRKIVDGGTAYYATPLLNGRGFYDINKDFNRDSLLCSAAVAANMFHYWLDINRDNVDRFLRQNPEKHGIIELPDGQLKLSDFLNTYESDHGYRDKSKLFDYISNNFNGGLWTDKLLDNYINGYGYNKKYGRTIEDPTKNTSKINFFKEVFNEKILTNNHQIRNQNEFSVLLSEALYTGKAIGLSYGPAGLRHSLGHIISVWGADLDADGNVVAIYVTDSDDKKLTIGDERVGLKRYKISTDDNNRLRLTAYEETHNTGGQIRGLWTLDTGKYAWADYFDKTEQTGTDQAEQLEHHHHHH", "OBS VALUE": "689 ng/µL"}

Documented Enzyme Activity Endpoint Assay (purified): IgG of PRT-227 (protein) MEVVEVWPYGQNPNGKTEILSQTEDSESLQRLRDIEDFQAEKKMQNVVYTKWLDGVDVKDHDFRKIVDGNIAYYATPLLNGRGFYDINKDFNRDSDKCAAAVAANMFHYWLDINRDNVDRFLRQNPEKHGIIELPDGQLKLSDFLNTYESDHGYRDKSKLFDFISNNFNGPVWTDKLLDNYINGYAYNYKYGRTIEDPTKNTSKINFFKEVFNEKILTNNHSIRNQNEFSVLLSEALYTGKAIGLSYGPAGLRHSLGHIISVWGADLDADGNVVAIYVTDSDDKKLTIGDERVGLKRYKISTDDENRLRLTAYEETHNTGGQIRGLYTLDTGKYAWADYFDKTEQTGTDQAEQLEHHHHHH : 880 ng/µL

So, PRT-242 (protein) MVTSVWTKGVTPPANFTQGEDVFHAPYVANQGWYDITKTFNGKDDLLCGAATAGNMLHWWFDQNKDQIKRYLEEHPEKQKINFNGEQMFDVKEAIDTKNHQLDSKLFDYFKEKAFPNLSTKHLGVFPDHVIDMFINGYRLSLLNHGPTPVKEGSKDPRGGIFDAVFTRGDQSKLLTSRHDFKEKNLKEISDLIKKELTEGKALGLSHTYANVRINHVINLWGADFDSNGNLKAIYVTDSDSNPSIGMKKYFVGVNSSGKVAISAKEIKEDNIGAQVLGLFTLSTGQDSWNQTN ? Its Enzyme Activity Endpoint Assay (purified): IgG was 0 ng/µL

What the record says about PRT-161 (protein) MANQEIRYSEVTPYHVTIVWTDGVKPPTDFIKGEDVFHAPYKAHQGWYDITKTFNGKDDLLCGAATAGNMLHWWFDQNKDQIKRYLEEHPEKQKINFNGEQMFDVKEAIDTKNHQLDSKLFEYFKEKAFPYLSTKHLGVFPDHVIDMFINGYRLSLTNHGPTPVKEGSKDPRGGIFDAVFTRGDQSKLLTSRHDFKEKNLKEISDLIKKELQEGKALGLSHTYANVRINHVINLWGADFDSNGNLKAIYVTDSDSNASIGMKKYFVGVNSAGKVAISAKEIKEDNIGAQVLGLFTLSTGQDSWNQTN : Enzyme Activity Endpoint Assay (purified): IgG is 0 ng/µL
